test: NCI Yeast Anticancer Drug Screen. Data for the mec2-1 strain (AID 157); conditions: S. cerevisiae mec2-1 strain, at 5.0 µM (retest, dose inferred, filed as 0.5), hits give high values
Compounds without any hit were thinned out: in the full panel of roughly 79,000, 15% have a hit.
Note to self: values exactly at 10% are condition met. So growth inhibition at or above 10% is condition met, below is condition not met.

{"COMPOUND": "COc1cc2c(cc1O)CCN[C@@]21CS[C@H]2c3c(OC(C)=O)c(C)c4c(c3C(COC1=O)N1C2C2c3c(cc(C)c(OC)c3O)CC([C@@H]1O)N2C)OCO4 (stereo partly drawn)", "CLASS NAME": "condition met"}
{"COMPOUND": "CCCOCCC#N", "CLASS NAME": "condition not met"}
{"COMPOUND": "OC1(c2ccccc2)CCN(c2c3ccccc3nc3ccccc23)CC1", "CLASS NAME": "condition not met"}
{"COMPOUND": "COc1ccccc1/C=C/c1ccnc2ccccc12", "CLASS NAME": "condition met"}
{"COMPOUND": "O=C(O)C1C(Br)(c2ccccc2)C1(Br)c1ccccc1 (stereo not drawn)", "CLASS NAME": "condition not met"}
{"COMPOUND": "CCCCCCCNC1CCCc2cc(OC)ccc21 (stereo not drawn)", "CLASS NAME": "condition met"}
{"COMPOUND": "O=C1C=CC(=O)N1C12CC3CC(CC(C3)C1)C2", "CLASS NAME": "condition met"}
{"COMPOUND": "S=c1n(-c2ccc(Cl)cc2)c2nc3ccccc3nc(/c2=N\\Nc2cc(Cl)ccc2Cl)n1-c1ccc(Br)cc1", "CLASS NAME": "condition not met"}
{"COMPOUND": "CC/C(=C(\\CC)c1ccc(O)c(CN(CC)CC)c1)c1ccc(OC)cc1", "CLASS NAME": "condition met"}
{"COMPOUND": "COc1cccc2c1N[S@](=O)S2", "CLASS NAME": "condition not met"}
{"COMPOUND": "COc1cc2c(c(OC)c1OC)-c1ccc(SC)c(=O)cc1[C@@H](NC(=O)Oc1ccccc1)CC2", "CLASS NAME": "condition met"}
{"COMPOUND": "CCNc1ccccc1C", "CLASS NAME": "condition not met"}
{"COMPOUND": "N#CSc1ccc(O)c2ccccc12", "CLASS NAME": "condition met"}
{"COMPOUND": "CC(C)c1ccc(CN(CCO)Cc2ccc(C(C)C)cc2)cc1", "CLASS NAME": "condition not met"}
{"COMPOUND": "O=Cc1cc2c(s1)C(=O)c1sccc1C2=O", "CLASS NAME": "condition met"}
{"COMPOUND": "COc1cc(C(Sc2ccccc2C(=O)O)Sc2ccccc2C(=O)O)ccc1O", "CLASS NAME": "condition met"}
{"COMPOUND": "Cc1nc2c(Cl)nc(Cl)nc2s1", "CLASS NAME": "condition met"}
{"COMPOUND": "Cc1ccc2ccc3ccc(C)nc3c2n1", "CLASS NAME": "condition met"}
